# system_tested: IgM^CM-22
# assay_procedure: SPR (BiaCore), IgM^CM-22 amine-coupled to CM5 chip, N2 injected at 10.5-120 µM, steady-state fit with 1:1 Langmuir isotherm
endpoint_name: pKd
# pKd: negative log10 of molar concentration; output just the value

// query pKd value for entry LMKNMDPLNDNV [self-peptide N2] 3.91
